All values here come from patent US8658661B2.

Biological target: recombinant human FLAP protein (Homo sapiens, UniProt P20292)
Construct: made in house; host or cells: Sf9 insect cells (100,000×g membrane pellet used)
Experiment: FLAP binding assay (SPA, displacement of [125I]L-691,831)
Details: membranes of sf9 cells expressing recombinant human FLAP; [125I]L-691,831 probe; read-out: FLAP binding IC50
readout_kind: IC50 (nM)

Look over these answered cases.
[
  {
    "molecule": "CC(C)[C@](C)(c1ccc(-c2cnc(N)nc2)cc1)c1noc(-c2ccn(C)n2)n1 [Example 16]",
    "IC50, nM": 2.5
  },
  {
    "molecule": "Cn1cc(-c2nc(C(C)(c3ccc(-c4cnc5c(c4)CCN5)cc3)C3CC3)no2)cn1 (stereo not shown) [Example 256]",
    "IC50, nM": 4.5
  }
]

1. CC(C)C(C)(c1ccc(-c2cnc(N)nc2)cc1)c1noc(N2CCC(CCO)CC2)n1 (stereo not shown) [Example 212]
2. CC(C)(CO)Nc1cnc(-c2nc([C@@](C)(c3ccc(-c4cnc(N)nc4)cc3)C3CC3)no2)cn1 (single isomer, unassigned) [Example 56]
Ask | For the pair 1 and 2 , which member has the lower IC50 number? Please identify the chosen entry by its label.
Reply | 2

1. C[C@@](c1ccc(-c2cnc(N)cn2)cc1)(c1noc(-c2cnn(C3COC3)c2)n1)C1CC1 [Example 265]
2. CC(C)C(C)(c1ccc(-c2cnc(N)nc2)cc1)c1noc(N2CCC(C(N)=O)CC2)n1 (stereo not shown) [Example 213]
Ask | Select the item whose IC50 value is smaller, choosing between 1 and 2 . Indicate your choice by writing its label.
Reply | 1

---

Target: recombinant human FLAP protein (Homo sapiens)
Construct: made in house; host or cells: Sf9 insect cells (100,000×g membrane pellet used)
Assay: FLAP binding assay (SPA, displacement of [125I]L-691,831)
Conditions: membranes of sf9 cells expressing recombinant human FLAP; [125I]L-691,831 probe; read-out: FLAP binding IC50
pIC50: −log10 of the molar value.
readout_kind: pIC50

A. COCCn1cc(-c2nc(C(C)(c3ccc(-c4cnc(N)nc4)cc3)C3CC3)no2)cn1 (stereo not shown) [Example 30]
B. CCNc1ncc(-c2ccc(C(C)(c3noc(-c4cnn(CC(=O)N(C)C)c4)n3)C3CC3)cc2)cn1 (stereo not shown) [Example 249]
C. CC(C)C(C)(c1ccc(-c2cnc(N)nc2)cc1)c1noc(N2CCC(C(=O)O)CC2)n1 (stereo not shown) [Example 219]
D. CC(C)C(C)(c1ccc(-c2cnc(N)nc2)cc1)c1noc(N2CCN(S(C)(=O)=O)CC2)n1 (stereo not shown) [Example 170]
Ask | Highest to lowest pIC50: rank the entries shown above. Present the labels in the sequence the task asks for.
Reply | A, D, C, B
(A: 8.30, D: 7.85, C: 7.41, B: 6.43)

---

Target: recombinant human FLAP protein (Homo sapiens)
Construct: made in house; host or cells: Sf9 insect cells (100,000×g membrane pellet used)
Assay: FLAP binding assay (SPA, displacement of [125I]L-691,831)
Conditions: membranes of sf9 cells expressing recombinant human FLAP; [125I]L-691,831 probe; read-out: FLAP binding IC50
pIC50: −log10 of the molar value.
readout_kind: pIC50

Solved entries (count: 4):
[
  {
    "compound": "Cn1cc(-c2nc([C@H](c3ccc(-c4cnc(N)nc4)cc3)C(C)(C)C)no2)cn1 [Example 66]",
    "pIC50": 7.96
  },
  {
    "compound": "CC(C)[C@@](C)(c1ccc(-c2cnc(N)nc2)cc1)c1noc(-c2ccn(C)n2)n1 [Example 17]",
    "pIC50": 7.62
  },
  {
    "compound": "CN(C)C(=O)Cn1cc(-c2nc([C@@](C)(c3ccc(-c4cnc5c(c4)CCN5)cc3)C3CC3)no2)cn1 [Example 284]",
    "pIC50": 8.33
  },
  {
    "compound": "CC(C)(CO)Nc1ccc(-c2nc(C(C)(C)c3ccc(-c4cnc(N)nc4)cc3)no2)cn1 [Example 72]",
    "pIC50": 7.92
  }
]

1. CN(C)C(=O)Cn1cc(-c2nc(C(C)(c3ccc(-c4cnc(N)nc4)cc3)C3CCC3)no2)cn1 (stereo not shown) [Example 97]
2. CC1(O)CN(c2nc(C(C)(c3ccc(-c4cnc(N)nc4)cc3)C3CC3)no2)C1 (stereo not shown) [Example 276]
Ask | // returns 1 or 2 , whichever has the lower pIC50 Write down the label attached to your selection.
Reply | 2
(2: 7.55, 1: 8.06)

---

Biological target: recombinant human FLAP protein (Homo sapiens, UniProt P20292)
Construct: made in house; host or cells: Sf9 insect cells (100,000×g membrane pellet used)
Assay: FLAP binding assay (SPA, displacement of [125I]L-691,831)
Settings: membranes of sf9 cells expressing recombinant human FLAP; [125I]L-691,831 probe; read-out: FLAP binding IC50
readout_kind: IC50 (nM)

For orientation, consider the following solved cases.
[
  {
    "compound": "CC(C)C(C)(c1ccc(-c2cnc(N)nc2)cc1)c1noc(-c2ccc(Cl)nc2)n1 (stereo not shown)",
    "IC50 (nM)": 3.1
  },
  {
    "compound": "Cc1csc(-c2nc(C(C)(c3ccc(-c4cnc(N)nc4)cc3)C(C)C)no2)n1 (stereo not shown)",
    "IC50 (nM)": 8.7
  },
  {
    "compound": "CC(C)C(C)(c1ccc(-c2cnc(N)nc2)cc1)c1noc(N2CC(C)(O)C2)n1 (stereo not shown)",
    "IC50 (nM)": 15
  }
]

A. COCCn1cc(-c2nc([C@](C)(c3ccc(-c4cnc(N)nc4)cc3)C3CCC3)no2)cn1
B. CCNc1nc(C(C)(c2ccc(-c3cnc(N)nc3)cc2)C(C)C)no1 (stereo not shown)
Ask | Input pair: A , B . Output: entry with lower IC50. Write down the label of the entry you select.
Reply | B

a. COCCn1cc(-c2nc([C@@](C)(c3ccc(-c4cnc(N)c(C)c4)cc3)C3CC3)no2)cn1
b. CN(C)C(=O)Cn1cc(-c2nc(C(C)(c3ccc(-c4cnc(N)c(C(F)(F)F)n4)cc3)C3CC3)no2)cn1 (stereo not shown)
Ask | For this pair, a and b , which shows a numerically higher IC50? Select an item and report its label.
Reply | a

I. Cc1nc(C)c(-c2nc(C(C)(c3ccc(-c4cnc(N)nc4)cc3)C(C)C)no2)s1 (stereo not shown)
II. COCCNc1cnc(-c2nc([C@@](C)(c3ccc(-c4cnc(N)nc4)cc3)C(C)C)no2)cn1
Ask | Exercise: compare I and II ; which one has the greater IC50? Answer by stating the label of the chosen item.
Reply | I
(I: 4.6 nM, II: 1.7 nM)

I. CC(C)C(C)(c1ccc(-c2cnc(N)nc2)cc1)c1noc(N2CCN(C(=O)N(C)C)CC2)n1 (stereo not shown)
II. CC(C)C(C)(c1ccc(-c2cnc(N)nc2)cc1)c1noc(N2CCC(N(C)C)CC2)n1 (stereo not shown)
III. CN(C)C(=O)Cn1cc(-c2nc([C@@](C)(c3ccc(-c4cnc5c(c4)OCCN5)cc3)C3CC3)no2)cn1
Ask | Please put the entries in order of rising IC50. Reply: labels, ordered per the request.
Reply | III, I, II

---

Target: recombinant human FLAP protein (Homo sapiens, UniProt P20292)
Construct: made in house; host or cells: Sf9 insect cells (100,000×g membrane pellet used)
Sequence (P20292 1-161): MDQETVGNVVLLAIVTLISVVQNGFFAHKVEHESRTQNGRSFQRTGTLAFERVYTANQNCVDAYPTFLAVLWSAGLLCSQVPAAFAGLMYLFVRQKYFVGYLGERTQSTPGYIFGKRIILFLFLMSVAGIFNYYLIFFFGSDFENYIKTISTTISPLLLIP
Assay: FLAP binding assay (SPA, displacement of [125I]L-691,831)
Conditions: membranes of sf9 cells expressing recombinant human FLAP; [125I]L-691,831 probe; read-out: FLAP binding IC50
readout_kind: IC50 (nM)

[
  {
    "compound": "CC(C)C(C)(c1ccc(-c2cnc(N)nc2)cc1)c1noc(-c2cnn(CC(C)(C)C(=O)O)c2)n1 (stereo not shown)",
    "assay_system": "recombinant human FLAP protein (Homo sapiens, UniProt P20292)",
    "units_of_measure": "nM",
    "recorded_result": 1.4
  }
]

A. CC(C)C(C)(c1ccc(-c2cnc(N)nc2)cc1)c1noc(C2CCCN(C(=O)OC(C)(C)C)C2)n1 (stereo not shown)
B. CC(C)C(C)(c1ccc(-c2cnc(N)nc2)cc1)c1noc(C2CCCC(=O)N2)n1 (stereo not shown)
C. Cc1ncsc1-c1nc(C(C)(c2ccc(-c3cnc(N)nc3)cc2)C(C)C)no1 (stereo not shown)
D. CC(C)C(C)(c1ccc(-c2cnc(N)nc2)cc1)c1noc(N2CCN(C)CC2)n1 (stereo not shown)
E. CC(C)C(C)(c1ccc(-c2cnc(N)nc2)cc1)c1noc(NCCN(C)C)n1 (stereo not shown)
Ask | Sequence the entries by IC50, beginning with the highest number. A complete answer lists every label in the requested sequence.
Reply | E, B, A, D, C
